Biological target: PI3Kβ (p110β/p85α) (Homo sapiens, UniProt P42338)
Construct: Full-length N-terminal GST-; GST (N); host or cells: SF9 cells (baculovirus)
Sequence (P42338 whole entry): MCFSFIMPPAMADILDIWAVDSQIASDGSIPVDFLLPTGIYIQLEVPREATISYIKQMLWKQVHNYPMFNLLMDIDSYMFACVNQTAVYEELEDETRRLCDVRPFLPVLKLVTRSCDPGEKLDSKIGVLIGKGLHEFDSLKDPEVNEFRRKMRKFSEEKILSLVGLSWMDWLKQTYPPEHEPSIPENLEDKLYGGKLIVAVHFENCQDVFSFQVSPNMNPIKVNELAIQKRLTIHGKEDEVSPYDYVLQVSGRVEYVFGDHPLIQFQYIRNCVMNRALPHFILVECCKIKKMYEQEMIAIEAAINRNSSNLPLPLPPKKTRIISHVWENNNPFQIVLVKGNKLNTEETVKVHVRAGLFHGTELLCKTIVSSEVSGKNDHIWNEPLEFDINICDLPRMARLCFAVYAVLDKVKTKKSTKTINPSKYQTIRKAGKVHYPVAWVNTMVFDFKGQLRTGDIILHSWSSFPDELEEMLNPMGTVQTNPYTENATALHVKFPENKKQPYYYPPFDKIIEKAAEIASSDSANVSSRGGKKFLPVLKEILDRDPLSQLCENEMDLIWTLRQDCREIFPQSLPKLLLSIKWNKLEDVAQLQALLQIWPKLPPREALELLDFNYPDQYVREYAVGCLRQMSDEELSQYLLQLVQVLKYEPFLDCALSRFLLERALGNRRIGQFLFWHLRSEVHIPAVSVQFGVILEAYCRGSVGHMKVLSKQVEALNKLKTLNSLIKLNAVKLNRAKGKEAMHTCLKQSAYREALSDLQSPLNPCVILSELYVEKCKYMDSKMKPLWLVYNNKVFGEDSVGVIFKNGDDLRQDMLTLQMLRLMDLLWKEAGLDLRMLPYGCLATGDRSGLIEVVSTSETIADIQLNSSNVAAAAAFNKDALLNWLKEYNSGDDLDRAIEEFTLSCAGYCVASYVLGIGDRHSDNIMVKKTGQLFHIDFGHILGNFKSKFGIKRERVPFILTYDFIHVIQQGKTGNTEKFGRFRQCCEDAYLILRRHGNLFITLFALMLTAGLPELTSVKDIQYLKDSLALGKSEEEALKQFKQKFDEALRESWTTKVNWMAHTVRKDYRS
Sequence (P27986 whole entry, further chain): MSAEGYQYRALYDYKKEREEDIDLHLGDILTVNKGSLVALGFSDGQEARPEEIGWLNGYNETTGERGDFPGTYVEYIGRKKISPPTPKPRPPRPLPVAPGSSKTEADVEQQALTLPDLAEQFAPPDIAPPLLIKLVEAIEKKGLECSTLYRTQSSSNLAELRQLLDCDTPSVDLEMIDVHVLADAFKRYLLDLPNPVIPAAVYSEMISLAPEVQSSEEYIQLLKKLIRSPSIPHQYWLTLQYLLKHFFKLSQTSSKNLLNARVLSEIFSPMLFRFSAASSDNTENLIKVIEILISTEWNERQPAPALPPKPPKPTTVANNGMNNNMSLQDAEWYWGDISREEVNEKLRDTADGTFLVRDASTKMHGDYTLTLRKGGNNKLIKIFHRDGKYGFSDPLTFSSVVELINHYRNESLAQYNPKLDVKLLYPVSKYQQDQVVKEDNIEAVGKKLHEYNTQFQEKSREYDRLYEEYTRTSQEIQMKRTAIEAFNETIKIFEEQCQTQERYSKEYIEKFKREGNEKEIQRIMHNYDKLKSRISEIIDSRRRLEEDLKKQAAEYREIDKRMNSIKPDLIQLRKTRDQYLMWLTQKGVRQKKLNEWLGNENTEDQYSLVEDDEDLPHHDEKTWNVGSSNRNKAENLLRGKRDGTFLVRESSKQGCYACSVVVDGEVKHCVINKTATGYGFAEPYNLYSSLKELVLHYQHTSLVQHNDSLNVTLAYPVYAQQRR
Type: biochemical
Settings: 1 nM enzyme, ATP 60 μM, 1 μM PIP2, 3 h room temperature; read-out: PI3Kβ IC50
Structures can show the parent of a compound that is named as a salt.
observed.property: IC50 (µM)
Return type: number; implicit unit µM.

Entry c1ccc(Nc2nc(N3CCOCC3)c3oc4ncccc4c3n2)cc1 , PI3Kβ (p110β/p85α) (Homo sapiens, UniProt P42338) data, IC50 value: 1.04

Entry c1cnc2oc3c(N4CCOCC4)nc(Nc4cc(CC5CCC5)n[nH]4)nc3c2c1 [Example 56, hydrochloride] , PI3Kβ (p110β/p85α) (Homo sapiens, UniProt P42338) data, IC50 value: 0.937

Entry Cc1cc(Nc2nc(N3CCOCC3)c3oc4ncccc4c3n2)[nH]n1 , PI3Kβ (p110β/p85α) (Homo sapiens, UniProt P42338) data, IC50 value: 0.306

Entry Cc1cc(Nc2nc(N3CCOCC3)c3oc4ncccc4c3n2)nn1C , PI3Kβ (p110β/p85α) (Homo sapiens, UniProt P42338) data, IC50 value: 2.63

Entry Cn1ccnc1Nc1nc(N2CCOCC2)c2oc3ncccc3c2n1 , PI3Kβ (p110β/p85α) (Homo sapiens, UniProt P42338) data, IC50 value: 6.54

* * *

Consider the following compounds; for each one, report its pIC50.
Molecular target: PI3Kα (p110α/p85α) (Homo sapiens)
Construct: Full-length N-terminal; FLAG (N); host or cells: SF9 cells (baculovirus)
Sequence (P42336 whole entry, one chain of several): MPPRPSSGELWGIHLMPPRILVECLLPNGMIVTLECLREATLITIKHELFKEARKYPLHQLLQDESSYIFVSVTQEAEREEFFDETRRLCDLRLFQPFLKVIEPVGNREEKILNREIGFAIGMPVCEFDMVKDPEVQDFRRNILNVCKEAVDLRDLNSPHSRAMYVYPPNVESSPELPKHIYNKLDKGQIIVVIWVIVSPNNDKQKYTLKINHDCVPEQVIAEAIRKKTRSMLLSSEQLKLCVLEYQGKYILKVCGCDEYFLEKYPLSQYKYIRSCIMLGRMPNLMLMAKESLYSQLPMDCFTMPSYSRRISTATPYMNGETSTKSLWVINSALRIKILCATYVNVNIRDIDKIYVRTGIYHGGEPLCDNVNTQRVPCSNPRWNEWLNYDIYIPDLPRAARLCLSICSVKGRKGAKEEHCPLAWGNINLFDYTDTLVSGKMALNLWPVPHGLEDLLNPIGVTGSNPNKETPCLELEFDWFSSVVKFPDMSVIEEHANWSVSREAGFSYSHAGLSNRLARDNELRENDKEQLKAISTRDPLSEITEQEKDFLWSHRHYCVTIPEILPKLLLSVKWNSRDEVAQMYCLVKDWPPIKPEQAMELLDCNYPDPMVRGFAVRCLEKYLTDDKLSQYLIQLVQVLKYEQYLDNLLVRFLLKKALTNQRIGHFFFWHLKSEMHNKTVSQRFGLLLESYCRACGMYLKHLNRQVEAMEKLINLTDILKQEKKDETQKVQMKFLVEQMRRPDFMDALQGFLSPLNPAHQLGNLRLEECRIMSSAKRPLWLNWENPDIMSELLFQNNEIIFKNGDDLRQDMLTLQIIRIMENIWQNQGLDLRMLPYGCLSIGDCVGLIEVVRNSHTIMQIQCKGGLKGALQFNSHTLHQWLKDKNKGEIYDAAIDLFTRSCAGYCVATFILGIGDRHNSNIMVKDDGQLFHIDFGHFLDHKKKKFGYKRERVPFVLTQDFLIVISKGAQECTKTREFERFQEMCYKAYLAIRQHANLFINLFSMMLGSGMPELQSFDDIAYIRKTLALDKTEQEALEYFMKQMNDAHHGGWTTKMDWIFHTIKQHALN
Assay type: biochemical
Conditions: 0.5 nM enzyme, ATP 90 μM, 1 μM PIP2, 3 h room temperature; read-out: PI3Kα IC50
Where a name gives a salt, the structure may show the parent alone.
Keep it numeric: pIC50 is minus log10 of the concentration in mol/L.

Entry c1cncc(Nc2nc(N3CCOCC3)c3oc4ncccc4c3n2)c1 [Example 39] , PI3Kα (p110α/p85α) (Homo sapiens) data, pIC50 value: 7.09

Entry c1ccc(Nc2nc(N3CCOCC3)c3oc4ncccc4c3n2)nc1 [Example 40] , PI3Kα (p110α/p85α) (Homo sapiens) data, pIC50 value: 6.99

Entry c1cnc2oc3c(N4CCOCC4)nc(Nc4cc(C5CCC5)n[nH]4)nc3c2c1 [Example 55, hydrochloride] , PI3Kα (p110α/p85α) (Homo sapiens) data, pIC50 value: 7.80

Entry Cn1ccnc1Nc1nc(N2CCOCC2)c2oc3ncccc3c2n1 [Example 12] , PI3Kα (p110α/p85α) (Homo sapiens) data, pIC50 value: 5.79

Entry Cc1cc(N(C)c2nc(N3CCOCC3)c3oc4ncccc4c3n2)nn1C [Example 11] , PI3Kα (p110α/p85α) (Homo sapiens) data, pIC50 value: 6.61

* * *

Tested on: IPSC-C9 motor neurons
Test: iPSC MN Survival assay (IPSC-C9)
Assay type: cell-based, human
Conditions: maximal reduction in hazard ratio vs control at various concentrations; <1.0 increased survival, >1.0 decreased survival
observed.property: IPSC-C9 (Hazard Ratio)
Reply: number alone, nothing else.

Record c1ccc(-c2cc(Nc3nc(N4CCOCC4)c4oc5ncccc5c4n3)[nH]n2)cc1 . Reported IPSC-C9 (Hazard Ratio): 0.65

Record c1cnc2oc3c(N4CCOCC4)nc(Nc4cc(-c5ccncc5)n[nH]4)nc3c2c1 . Reported IPSC-C9 (Hazard Ratio): 0.96

Record c1ccc(-c2cc(Nc3nc(N4CCOCC4)c4oc5ncc(CCN6CCCC6)cc5c4n3)[nH]n2)cc1 . Reported IPSC-C9 (Hazard Ratio): 0.9

Record c1cnc2oc3c(N4CCOCC4)nc(Nc4cncnc4)nc3c2c1 . Reported IPSC-C9 (Hazard Ratio): 1.06

Record Cc1cccc(-c2cc(Nc3nc(N4CCOCC4)c4oc5ncccc5c4n3)[nH]n2)c1 . Reported IPSC-C9 (Hazard Ratio): 1.2

Record Cc1cc(N(C)c2nc(N3CCOCC3)c3oc4ncccc4c3n2)nn1C . Reported IPSC-C9 (Hazard Ratio): 0.99

Record c1ccc(Nc2nc(N3CCOCC3)c3oc4ncccc4c3n2)cc1 . Reported IPSC-C9 (Hazard Ratio): 0.99

Record Cl.c1cnc2oc3c(N4CCOCC4)nc(Nc4cc(-c5ccsc5)n[nH]4)nc3c2c1 . Reported IPSC-C9 (Hazard Ratio): 0.542

* * *

Molecular target: PI3Kα (p110α/p85α) (Homo sapiens)
Construct: Full-length N-terminal; FLAG (N); host or cells: SF9 cells (baculovirus)
Type: biochemical
Conditions: 0.5 nM enzyme, ATP 90 μM, 1 μM PIP2, 3 h room temperature; read-out: PI3Kα IC50
Structures can show the parent of a compound that is named as a salt.
Consider the following molecules; for each one, report its pIC50.
Keep it numeric: pIC50 is minus log10 of the concentration in mol/L.

Record c1ccc(Nc2nc(N3CCOCC3)c3oc4ncccc4c3n2)cc1 . Reported pIC50: 7.17

Record c1ccc(CCNc2nc(N3CCOCC3)c3oc4ncccc4c3n2)cc1 . Reported pIC50: 6.80

Record C[C@H](Nc1nc(N2CCOCC2)c2oc3ncccc3c2n1)C1CC1 . Reported pIC50: 7.11

Record c1cnc2oc3c(N4CCOCC4)nc(Nc4cc(-c5ccncc5)n[nH]4)nc3c2c1 . Reported pIC50: 6.93

Record c1cnc2oc3c(N4CCOCC4)nc(Nc4cc(CC5CCC5)n[nH]4)nc3c2c1 [Example 56, hydrochloride] . Reported pIC50: 7.33

Record c1cnc2oc3c(N4CCOCC4)nc(Nc4ccncc4)nc3c2c1 . Reported pIC50: 5.06

Record Cc1cc(Nc2nc(N3CCOCC3)c3oc4ncccc4c3n2)[nH]n1 . Reported pIC50: 6.79

Record c1ccc(-c2cc(Nc3nc(N4CCOCC4)c4oc5ncccc5c4n3)[nH]n2)cc1 . Reported pIC50: 6.84

Record Cc1cc(Nc2nc(N3CCOCC3)c3oc4ncccc4c3n2)nn1C . Reported pIC50: 7.09

* * *

Molecular target: Full length human recombinant PIKFYVE (Homo sapiens, UniProt Q9Y2I7, L932S/Q1183K/Q995L/S1033A/S696N/T998S)
Construct: Full length human recombinant PIKFYVE; purchased Carna Biosciences (Kobe, Japan); host or cells: baculovirus expression system (insect cells)
Sequence (Q9Y2I7 whole entry S696N/L932S/Q995L/T998S/S1033A/Q1183K): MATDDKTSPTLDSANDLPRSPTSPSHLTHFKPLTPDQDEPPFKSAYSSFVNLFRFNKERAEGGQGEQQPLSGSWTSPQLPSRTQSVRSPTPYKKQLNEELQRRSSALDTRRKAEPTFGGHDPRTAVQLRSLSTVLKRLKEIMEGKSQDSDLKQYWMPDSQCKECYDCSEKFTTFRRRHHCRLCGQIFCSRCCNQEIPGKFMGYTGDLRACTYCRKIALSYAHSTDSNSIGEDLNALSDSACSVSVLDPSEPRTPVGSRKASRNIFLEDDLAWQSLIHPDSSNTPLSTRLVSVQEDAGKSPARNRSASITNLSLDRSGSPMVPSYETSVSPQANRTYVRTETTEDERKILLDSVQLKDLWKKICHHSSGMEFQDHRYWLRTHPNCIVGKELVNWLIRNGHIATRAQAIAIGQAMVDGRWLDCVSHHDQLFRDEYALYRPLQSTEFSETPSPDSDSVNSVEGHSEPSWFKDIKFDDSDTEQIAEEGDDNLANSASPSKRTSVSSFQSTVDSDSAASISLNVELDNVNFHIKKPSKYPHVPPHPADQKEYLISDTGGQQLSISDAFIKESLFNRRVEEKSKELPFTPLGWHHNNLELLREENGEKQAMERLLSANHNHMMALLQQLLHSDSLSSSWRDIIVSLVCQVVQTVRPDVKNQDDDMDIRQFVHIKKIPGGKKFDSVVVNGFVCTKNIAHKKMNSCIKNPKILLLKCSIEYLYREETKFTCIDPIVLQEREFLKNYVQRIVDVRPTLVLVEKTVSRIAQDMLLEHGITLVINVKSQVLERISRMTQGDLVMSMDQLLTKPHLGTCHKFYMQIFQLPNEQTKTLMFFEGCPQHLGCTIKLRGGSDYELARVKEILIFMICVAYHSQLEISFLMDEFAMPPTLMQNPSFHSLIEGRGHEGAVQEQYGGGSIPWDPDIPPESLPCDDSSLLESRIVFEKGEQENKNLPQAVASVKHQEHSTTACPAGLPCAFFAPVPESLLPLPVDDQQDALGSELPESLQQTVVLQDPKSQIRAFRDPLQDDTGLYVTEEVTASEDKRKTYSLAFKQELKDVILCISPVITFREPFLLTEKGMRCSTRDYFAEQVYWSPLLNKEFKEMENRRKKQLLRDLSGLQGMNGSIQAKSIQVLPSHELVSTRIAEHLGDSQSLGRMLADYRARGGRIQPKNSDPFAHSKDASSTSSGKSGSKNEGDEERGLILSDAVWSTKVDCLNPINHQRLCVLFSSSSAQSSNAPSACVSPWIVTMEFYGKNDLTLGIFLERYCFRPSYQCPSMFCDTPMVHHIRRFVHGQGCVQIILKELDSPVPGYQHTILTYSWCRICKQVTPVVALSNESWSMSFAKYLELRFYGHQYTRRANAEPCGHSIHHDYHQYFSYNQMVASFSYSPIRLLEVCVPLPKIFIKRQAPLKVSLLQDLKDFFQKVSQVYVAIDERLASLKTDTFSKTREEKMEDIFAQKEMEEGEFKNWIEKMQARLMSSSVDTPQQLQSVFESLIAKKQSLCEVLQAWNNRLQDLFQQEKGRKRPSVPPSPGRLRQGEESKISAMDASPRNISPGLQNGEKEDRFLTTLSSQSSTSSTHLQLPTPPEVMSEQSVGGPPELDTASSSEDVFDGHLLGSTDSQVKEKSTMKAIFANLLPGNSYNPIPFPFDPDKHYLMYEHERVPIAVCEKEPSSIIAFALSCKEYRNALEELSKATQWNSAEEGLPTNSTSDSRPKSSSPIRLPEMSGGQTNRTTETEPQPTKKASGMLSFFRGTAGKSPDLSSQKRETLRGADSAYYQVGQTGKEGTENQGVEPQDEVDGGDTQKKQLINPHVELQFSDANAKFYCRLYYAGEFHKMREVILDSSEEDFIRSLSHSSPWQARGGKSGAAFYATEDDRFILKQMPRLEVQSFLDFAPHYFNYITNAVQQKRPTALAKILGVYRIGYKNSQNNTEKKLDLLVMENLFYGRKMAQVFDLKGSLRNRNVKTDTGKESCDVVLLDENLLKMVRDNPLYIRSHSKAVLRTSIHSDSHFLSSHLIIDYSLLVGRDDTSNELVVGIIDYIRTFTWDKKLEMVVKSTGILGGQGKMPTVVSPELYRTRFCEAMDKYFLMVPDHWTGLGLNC
Assay: Inhibition of PIKfyve (microfluidic electrophoresis kinase assay)
Assay type: biochemical
Where a name gives a salt, the structure may show the parent alone.
observed.property: pIC50
Keep it numeric: pIC50 is minus log10 of the concentration in mol/L.

Record O=C(Nc1nc(N2CCOCC2)c2oc3ncccc3c2n1)Oc1ccccc1 [Example 22, hydrochloride] . Reported pIC50: 5.19

* * *

Target: Full length human recombinant PIKFYVE (Homo sapiens, UniProt Q9Y2I7, L932S/Q1183K/Q995L/S1033A/S696N/T998S)
Construct: Full length human recombinant PIKFYVE; purchased Carna Biosciences (Kobe, Japan); host or cells: baculovirus expression system (insect cells)
Assay: Inhibition of PIKfyve (microfluidic electrophoresis kinase assay)
Format: biochemical
Details: 2 nM enzyme, 1 μM PI3P, 3 h at room temperature, 12 concentrations; read-out: PIKfyve IC50
Counter-ions that a name gives are not always drawn.
observed.property: IC50 (µM)
Return type: number; implicit unit µM.

Record c1ccc(-c2cc(Nc3nc(N4CCOCC4)c4oc5nc(OCCN6CCCC6)ccc5c4n3)[nH]n2)cc1 [Example 26, hydrochloride] . Reported IC50: 0.082

Record FC(F)(F)c1cccc(-c2cc(Nc3nc(N4CCOCC4)c4oc5ncccc5c4n3)[nH]n2)c1 [Example 18, hydrochloride] . Reported IC50: 1.63

Record Cc1ccc(-c2cc(Nc3nc(N4CCOCC4)c4oc5ncccc5c4n3)[nH]n2)cc1 . Reported IC50: 0.398

Record c1csc(-c2cc(Nc3nc(N4CCOCC4)c4oc5ncccc5c4n3)[nH]n2)c1 [Example 60, hydrochloride] . Reported IC50: 0.037

Record Cc1cc(Nc2nc(N3CCOCC3)c3oc4ncccc4c3n2)nn1C . Reported IC50: 4.32

Record c1ccc(-c2cccc(Nc3nc(N4CCOCC4)c4oc5ncccc5c4n3)c2)cc1 . Reported IC50: 3.98

* * *

Biological target: Full length human recombinant PIKFYVE (Homo sapiens, UniProt Q9Y2I7, L932S/Q1183K/Q995L/S1033A/S696N/T998S)
Construct: Full length human recombinant PIKFYVE; purchased Carna Biosciences (Kobe, Japan); host or cells: baculovirus expression system (insect cells)
Test: Inhibition of PIKfyve (microfluidic electrophoresis kinase assay)
Type: biochemical
Conditions: 2 nM enzyme, 1 μM PI3P, 3 h at room temperature, 12 concentrations; read-out: PIKfyve IC50
Counter-ions that a name gives are not always drawn.
Consider the following compounds; for each one, report its log10 IC50.
Please be aware that the numbers have been log10-transformed from IC50 in nM.

Record c1cnc2oc3c(N4CCOCC4)nc(Nc4cc(C5CCCC5)n[nH]4)nc3c2c1 [Example 59, hydrochloride] . Reported log10 IC50: 3.11

Record CN(C)CCCOc1ccc2c(n1)oc1c(N3CCOCC3)nc(Nc3cc(-c4ccccc4)n[nH]3)nc12 [Example 23, hydrochloride] . Reported log10 IC50: 1.30

Record Clc1cccc(-c2cc(Nc3nc(N4CCOCC4)c4oc5ncccc5c4n3)[nH]n2)c1 [Example 17, hydrochloride] . Reported log10 IC50: 2.11

Record c1ccc(-c2cc(Nc3nc(N4CCOCC4)c4oc5ncccc5c4n3)[nH]n2)cc1 . Reported log10 IC50: 1.36

Record c1cnc2oc3c(N4CCOCC4)nc(Nc4cc(CC5CC5)n[nH]4)nc3c2c1 [Example 54, hydrochloride] . Reported log10 IC50: 3.41

Record Brc1cnc2oc3c(N4CCOCC4)nc(Nc4cc(-c5ccccc5)[nH]n4)nc3c2c1 . Reported log10 IC50: 2.94

Record Oc1ccc2c(n1)oc1c(N3CCOCC3)nc(Nc3cc(-c4ccccc4)n[nH]3)nc12 [Example 5, hydrochloride] . Reported log10 IC50: 1.23

Record COc1ccc2c(n1)oc1c(N3CCOCC3)nc(Nc3cc(-c4ccccc4)n[nH]3)nc12 [Example 30, hydrochloride] . Reported log10 IC50: 2.21

Record c1ccc(-c2cc(Nc3nc(N4CCOCC4)c4oc5nc(OCCCN6CCOCC6)ccc5c4n3)[nH]n2)cc1 [Example 25, hydrochloride] . Reported log10 IC50: 1.15

Record c1cncc(-c2cc(Nc3nc(N4CCOCC4)c4oc5ncccc5c4n3)[nH]n2)c1 [Example 31, hydrochloride] . Reported log10 IC50: 3.04

Record CN1CCN(CCOc2ccc3c(n2)oc2c(N4CCOCC4)nc(Nc4cc(-c5ccccc5)n[nH]4)nc23)CC1 [Example 28, hydrochloride] . Reported log10 IC50: 1.66

Record FC(F)(F)Oc1cccc(-c2cc(Nc3nc(N4CCOCC4)c4oc5ncccc5c4n3)[nH]n2)c1 [Example 35, hydrochloride] . Reported log10 IC50: 3.19

Record c1ccc(CCNc2nc(N3CCOCC3)c3oc4ncccc4c3n2)cc1 . Reported log10 IC50: 2.99

Record c1cnc2oc3c(N4CCOCC4)nc(Nc4cc(C5CC5)n[nH]4)nc3c2c1 [Example 53, hydrochloride] . Reported log10 IC50: 3.32

Record c1ccc(Nc2nc(N3CCOCC3)c3oc4ncccc4c3n2)cc1 . Reported log10 IC50: 2.64

Record Cc1cccc(-c2cc(Nc3nc(N4CCOCC4)c4oc5ncccc5c4n3)[nH]n2)c1 . Reported log10 IC50: 1.58

Record Cc1cc(Nc2nc(N3CCOCC3)c3oc4ncccc4c3n2)[nH]n1 . Reported log10 IC50: 3.34

Record c1ccc(-c2cc(Nc3nc(N4CCOCC4)c4oc5nc(OCCN6CCOCC6)ccc5c4n3)[nH]n2)cc1 [Example 24, hydrochloride] . Reported log10 IC50: 1.79

Record Fc1ccc(-c2cc(Nc3nc(N4CCOCC4)c4oc5ncccc5c4n3)[nH]n2)cc1 [Example 1, hydrochloride] . Reported log10 IC50: 2.67
